assay-remarks: change in splice reporter luminescence, either direction, cell-based, HEK293, spliceosome inhibition project, primary screen (AID 1101);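 also: HEK293 cells carrying a splicing-competent luciferase reporter gene; test concentration not given here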
condition-details: HEK293 splicing luciferase reporter, 24 h, higher = more signal, called active from +8 up or from −8 down
value-kind: z-score
Reply briefly: the number, and no unit.

**Query** So what's the measured z-score for this one? CCOc1ccc(N2C(=O)CSC2c2cccc([N+](=O)[O-])c2)cc1 (configuration not stated)
**Result** -0.105

**Query** So what's the measured z-score for this one? CCOC(=O)C1=CC[C@@H](c2ccc(C(F)(F)F)cc2)N(S(=O)(=O)c2ccc(C)cc2)[C@H]1c1ccccc1
**Result** -2.54

**Query** So what's the measured z-score for this one? COC(=O)[C@@]1(Cc2ccc(F)cc2)[C@H]2c3cc(C(=O)N(C)C)n(Cc4cc(C)n(C)n4)c3C[C@H]2CN1C(=O)c1ccccc1
**Result** -1.99

**Query** So what's the measured z-score for this one? COCCOC(=O)N1C(=O)[C@@]2(c3ccccc31)[C@H](c1ccc(OCCO)cc1)N1[C@H](c3ccccc3)[C@H](c3ccccc3)OC(=O)[C@H]1[C@@H]2C(=O)N1CCc2cc(OC)c(OC)cc2C1
**Result** -1.02

**Query** So what's the measured z-score for this one? NC(=O)N1C(=O)C2C(C1=O)C1C=C(CCCO)C2C(C2CC2)N1Cc1cc2c(cc1Br)OCO2 (configuration not stated)
**Result** 0.901

**Query** So what's the measured z-score for this one? CC(=O)NCCCC[C@@H]1NC(=O)[C@H]2C[C@@H](C(=O)O)[C@@H](c3ccc(O)cc3)N2C1=O
**Result** -0.177

**Query** So what's the measured z-score for this one? CC(C)CNC(=O)[C@@]1(Cc2ccccc2I)c2ccccc2C(=O)N(Cc2ccccc2C(F)(F)F)[C@H]1c1ccc(CO)cc1
**Result** 0.368

----------
target-under-test: Carbonic anhydrase 2 (Homo sapiens)
assay-remarks: compounds binding carbonic anhydrase 2 – biochemical, small-molecule microarray, Alexa647-labelled CAII, profiling panel (AID 1122)
condition-details: CAII-A647 binding fluorescence, higher = more signal
Label yes for high-side composite z-score (at or above 0.7) and no for low-side composite z-score (below it).

**Query** Given the entry O=C1O[C@H](c2ccccc2)[C@H](c2ccccc2)N2[C@H]1[C@@H](C(=O)NC[C@H](O)c1ccccc1)[C@]1(C(=O)Nc3ccccc31)[C@H]2c1ccc(O)cc1 , answer whether its composite z-score meets or surpasses 0.7.
**Result** no

**Query** Given the entry CCC(CC)C(O)C1C=CC2C(=O)N(c3ccccc3)C(=O)C2N1Nc1ccccc1 (stereo not drawn) , answer whether its composite z-score meets or surpasses 0.7.
**Result** no

**Query** Given the entry O=C(CS)NCCCCCNC(=O)[C@H]1C[C@H]2C(=O)NCC(=O)N2[C@H]1c1cccc(OCCO)c1 , answer whether its composite z-score meets or surpasses 0.7.
**Result** yes

**Query** Given the entry CN(C)C(=O)[C@]1(Cc2ccccc2)N=C(c2ccc(OCCCO)cc2)O[C@@H]1c1ccccc1N=[N+]=[N-] , answer whether its composite z-score meets or surpasses 0.7.
**Result** yes

**Query** Given the entry COc1ccc([C@H]2C[C@H]3C(I)=C[C@@H]2C(=O)[C@]32CO2)cc1 , answer whether its composite z-score meets or surpasses 0.7.
**Result** no

**Query** Given the entry CC[C@@H]1C=C(C(=O)O)[C@H](c2ccc(C)cc2)N1S(=O)(=O)c1ccc(C)cc1 , answer whether its composite z-score meets or surpasses 0.7.
**Result** yes

**Query** Given the entry C=CCC(OC(C)=O)[C@@H]1[C@@H](N(Cc2cc3ccccc3o2)C(=O)Cc2ccc(OC)cc2)c2cc(OCCCO)ccc2N1C(=O)c1ccc2ccccc2c1 (stereo partly drawn) , answer whether its composite z-score meets or surpasses 0.7.
**Result** no
